Item-by-item account of t1/2
- TESTED SYSTEM: T1, Fel d1 (B-A)-mmH (cat (Felis domesticus))
- T1 construct: Expressed in CHO cells; also called rFel d1.mmH; rFel d1-mmH
- T1 sequence (chain, as listed by the source limits assumed): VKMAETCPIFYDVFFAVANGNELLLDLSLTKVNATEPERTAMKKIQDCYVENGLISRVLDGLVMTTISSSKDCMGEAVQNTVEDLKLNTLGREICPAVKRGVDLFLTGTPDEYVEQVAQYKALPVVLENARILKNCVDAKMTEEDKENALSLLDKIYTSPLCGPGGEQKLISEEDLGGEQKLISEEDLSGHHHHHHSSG
- PROTOCOL DETAILS: SPR, mAb captured, Fel d1 (B-A)-mmH injected, 25 C;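 further: rate constants obtained by fitting sensorgrams to a one-to-one binding model, Kd computed as koff over kon, half-life derived from koff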
Form entry: value (min) — number only.

- BINDER: "H4H2864P (antibody, human IgG4, V domains shown, human IgG4 Fc (prefix H4H)) VH: EVQLVESGGGLAQPGGSLRLSCAASGFTFNNYAMTWVRQAPGKGLDWVSAISDSGRSTFSADSVKGRFTISRDNSKNTLYLQMDSLRAEDTALYYCAKHRNWNYPVFDYWGQGTLVTVSS VL: DIQLTQSPSFLSASVGDRVTITCWASQGISSYLAWYQQKPGKAPKLLIYSASTLQSGVPSRFSGSGSGTEFTLTISSLQPEDFATYYCQQLNSYPFTFGPGTKVDIK"
  UNIT SYMBOL: "min"
  t1/2: 37
- BINDER: "H4H1616N (antibody, human IgG4, V domains shown, human IgG4 Fc (prefix H4H)) VH: EVELLESGGGLVQPGGSLRLSCAASGFTFSSYAMSWVRQAPGKGLEWVSSISGRVGSTHFADSVKGRFTFSRDNSKNTLYLQLSSLRAEDTAVYYCARSRGAAYFDYWGQGTLVTVSS VL: DIQMTQSPSSLSASVGDRVTITCQANQDISNFLNWYQQRPGKAPNLLIYAASNLETGVPSRFSGSGSGTDFTFTISSLQPEDIATYYCQHYDNFPFTFGPGTKVDIK"
  UNIT SYMBOL: "min"
  t1/2: 6

API: the following record is the query input.
Query: Quick one: t1/2 for H2M1237N (antibody, mouse IgG2, V domains shown, chimeric, human variable domains with mouse IgG2 Fc (prefix H2M)) VH: QVVLVESGGGVVQPGRSLRLSCAASGFTFSSYGMHWVRQAPGKGLEWVAVIWYDGSIKYYADSVKGRFTISRDNSNNTIYLQMNSLRAEDTAVYYCARALIPVAGTDPIFGYWGQGTLVTVSS VL: DIQMTQSPSTLSASVGDRVTITCRASQSVSSWLAWYQQKPGKAPKLLIFKTSGLESGVPFRFSGSGSGTEFTLTISSLQPDDFATYYCQQYNTYSPTFGQGTKVEIK ?
Response: 70
